Test: basal HepG2 mitochondrial membrane potential changes, profiling panel, cell-based, JC-1 fluorescence, 24 h, 100 nL compound (AID 1167); further: test concentration not given here
Settings: higher = more signal
Form field: z-score (one value per entry).
Give the value as a plain number.

Q: So what's the measured z-score for this one? [N-]=[N+]=NC[C@H](Cc1ccccc1)NC(=O)c1ccccc1
A: 0.581

Q: Query Cc1ccc(F)cc1S(=O)(=O)N[C@@H]1CCN(Cc2cccc3[nH]ccc23)C1 next
A: 0.0617

Q: Query COc1ccc(C(O)C2C=CC3C(=O)N(c4ccccc4)C(=O)C3N2Nc2ccccc2)cc1 (stereo not drawn) next
A: -1.2

Q: Query COc1ccc([Si](C)(C)[C@@H]2[C@@H](CCn3cc([C@H](O)c4ccccc4)nn3)O[C@]3(C(=O)N(c4ccccc4)c4ccccc43)[C@H]2C)cc1 next
A: 1.63

Continuing:
Q: So what's the measured z-score for this one? C=C(CCCC)C(=O)CC[C@H](OC(C)=O)c1ccc(OCCO)cc1
A: 0.764

Origin of measurements: PubChem BioAssay
